# TARGET OR TEST SYSTEM: human MN protein, entire extra-cellular domain with a C-terminal histag, expressed in HKB-11 cells (human, UniProt Q16790 38-414)
# METHOD SUMMARY: BIAcore surface plasmon resonance; Fab captured on immobilized anti-human-Fab IgG, purified human MN (HKB-11) as analyte; 1:1 Langmuir fit
PROPERTY: Kd (nM)
Numeric only. Scale: nM

Which Kd value is on record for 3bb2 Fab (Fab, V domains shown, Only CDRs are tied to the name) VH: ELVESGGGLVQPGGSLRLSCAASGFTFSNYGISWVRQAPGKGLEWVSAISYYGSNTYYADSVKGRFTISRDNSKNTLYLQMNSLRAEDTAVYYCARLKGGSGFVWGQGTLVTVSS VL: DIVMTQSPLSLPVTPGEPASISCRSSQSLVYSNGNTTLSWYLQKPGQSPQLLIYGVSNRASGVPDRFSGSGSGTDFTLKISRVEAEDVGVYYCQQYNSFPRTFGQGTKVEIK ? 27

Source listed as patent US20120301468A1.
